System name: T1, Y^246D EGFR (full-length human, FLAG tag) on BaF/3 cells (human, UniProt P00533 25-1210)
T1 construct: whole, on cells
Test description: Scatchard, 125I-EGF on BaF/3 cells, Kd2 (low-affinity site)
Value kind: Kd (nM)
Numbers only; they are read as nM.

Field Kd (entry Murine EGF, purified from mouse submaxillary glands (ligand, UniProt P01132 977-1029, looked up, iodinated with 125I (Iodogen) as tracer in the Scatchard assays, mature; also called ^125I-EGF) NSYPGCPSSYDGYCLNGGVCMHIESLDSYTCNCVIGYSGDRCQTRDLRWWELR ) reads 2.1
